Hi there, I'd appreciate the recorded viability for every entry that follows.
assay: drug combination growth inhibition, ovarian cancer – cell-based, oncology-focused library, rucaparib conditional, profiling panel (AID 1508598); conditions: patient-derived ovarian cancer cells, CellTiter-Glo viability, 144 h; at 0.00488 µM; OCI-P5x cells; with rucaparib 20 µM; stronger effect = lower value; 100% = cells with rucaparib alone
# unit: % | format: bare number

Q: Quick check: viability of CCN(CC)CCCCNc1ncc2cc(-c3cc(OC)cc(OC)c3)c(NC(=O)NC(C)(C)C)nc2n1 ?
A: 104

Q: Quick check: viability of CN1CCN(CCOc2cc(OC3CCOCC3)c3c(Nc4c(Cl)ccc5c4OCO5)ncnc3c2)CC1 ?
A: 102

Q: Quick check: viability of CCc1cc(Nc2nccc(-c3c(-c4ccc(OC)c(C(=O)Nc5c(F)cccc5F)c4)nc4ccccn34)n2)c(OC)cc1N1CCC(N2CCN(S(C)(=O)=O)CC2)CC1 ?
A: 98.3

Q: Quick check: viability of COCCn1c2c([n+](Cc3cnccn3)c1C)C(=O)c1ccccc1C2=O ?
A: 114

Q: Quick check: viability of N#CCNC(=O)c1ccc(-c2ccnc(Nc3ccc(N4CCOCC4)cc3)n2)cc1 ?
A: 106

Q: Quick check: viability of CCNC(=O)c1noc(-c2cc(C(C)C)c(O)cc2O)c1-c1ccc(CN2CCOCC2)cc1 ?
A: 13.9

Q: Quick check: viability of CN1CCN(c2ccc(OC(F)(F)F)c(Nc3ncc4c(n3)-c3c(c(C(N)=O)nn3CCO)CC4)c2)CC1 ?
A: 88.1

Q: Quick check: viability of COc1cc(Nc2nc3ccccc3nc2NS(=O)(=O)c2ccc(NC(=O)c3ccc(C)c(OC)c3)cc2)cc(OC)c1 ?
A: 103

* * *

assay: viability loss with induced miR-34 in A549 – imaging, A549 dox-inducible miR-34, nuclei and caspase counts, primary screen (AID 1347080); settings: A549 miR-34 inducible, Hoechst nuclei count, 48 h; measured here: total cells with miR-34 induction; stronger effect = lower value
Each entry falls into one class according to its cell count; the ranges are lower = under 6000, middle = from 6000 up to 8000, upper = 8000 and over

Q: The entry to classify is CCC(=O)OCN1C(=O)C=CC1=O ; which class holds it?
A: upper

Q: The entry to classify is CCCCC[C@H](O)/C=C/[C@H]1[C@H](O)CC(=O)[C@@H]1CCCCCCCO ; which class holds it?
A: lower

Q: The entry to classify is O=C(O)CCC/C=C\C[C@H]1C(=O)C=C[C@@H]1/C=C/[C@@H](O)COc1ccccc1 ; which class holds it?
A: lower

Q: The entry to classify is O=C(Nc1ccc2c(=O)cc(-c3nn[nH]n3)oc2c1)c1ccc(OCCCCc2ccccc2)cc1 ; which class holds it?
A: middle

Q: The entry to classify is CC#CCC(C)C(=O)/C=C/[C@@H]1[C@H]2C/C(=C/CCCC(=O)O)C[C@H]2C[C@H]1O (stereo not given in full) ; which class holds it?
A: lower

Q: The entry to classify is N[C@H](C(=O)O)c1ccc(C(=O)O)c(O)c1 ; which class holds it?
A: upper

Q: The entry to classify is CCCCCC/C=C\CCCC(=O)CC(=O)N[C@H]1CCOC1=O ; which class holds it?
A: middle

Q: The entry to classify is NC(=O)c1ccc(N(C(N)=O)c2c(F)cccc2F)nc1-c1ccc(F)cc1F ; which class holds it?
A: upper

Q: The entry to classify is C/C=C/C(=O)O[C@H](COCCCCCCCCCCCCCCCC)COP(=O)([O-])OCC[N+](C)(C)C ; which class holds it?
A: lower

Q: The entry to classify is Cc1nc(COP(=O)(O)O)cc(CN(CCN(CC(=O)O)Cc2cc(COP(=O)(O)O)nc(C)c2O)CC(=O)O)c1O.[Mn] ; which class holds it?
A: upper

Q: The entry to classify is O=C(Nc1cccc(C(F)(F)F)c1)Nc1cc(S(=O)(=O)NC2CC2)ccc1-c1ccsc1 ; which class holds it?
A: middle

Q: The entry to classify is c1ccc2cc(C3=NCCN3)ncc2c1 ; which class holds it?
A: upper

Q: The entry to classify is CNC(=O)c1c(F)cccc1Nc1nc(Nc2cc3c(cc2OC)CCN3C(=O)CN(C)C)nc2[nH]ccc12 ; which class holds it?
A: lower

Q: The entry to classify is COc1ccc(-c2ccc(=N)n(CCCC(=O)O)n2)cc1 ; which class holds it?
A: upper

Q: The entry to classify is CCCCC/C=C\CCCC/C=C\C/C=C\CCCC(=O)O ; which class holds it?
A: lower

* * *

experiment: growth inhibition of DIPG cells – cell-based, MIPE5.0 library, qHTS (AID 1347068); details: SU-DIPG-XXV viability;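 for IC50: cells exposed to compound for 48 hours before viability readout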
Records with an inconclusive call do not appear. The source made the active and inactive calls. The limit is not given here; nearly all actives have IC50 up to about 30 µM.
Lab note: assign the record to one of active, inactive

Q: Each compound tested received a call. Report the one for O=C(Nc1c(Cl)cncc1Cl)c1ccc(OC(F)F)c(OCC2CC2)c1 .
A: inactive

Q: Each compound tested received a call. Report the one for COc1cc(N2CCC(N3CCN(C)CC3)CC2)ccc1Nc1ncnc(Nc2ccccc2S(=O)(=O)C(C)C)n1 .
A: inactive

Q: Each compound tested received a call. Report the one for CN[C@@H](C)[C@H]1[C@H](O)C[C@@]2(C)[C@@H]3CC[C@H]4C(C)(C)[C@@H](NC)CC[C@@]45C[C@@]35CC[C@]12C .
A: inactive

Q: Each compound tested received a call. Report the one for c1ccc(Cn2c(-c3ccc(OCC(C4CCNCC4)n4c(-c5ccccc5)nc5ccccc54)cc3)nc3ccccc32)cc1 (centres undefined) .
A: active

Q: Each compound tested received a call. Report the one for Cc1ccc(C2=Nc3ccc(Cl)cc3OC2)cc1 .
A: inactive

Q: Each compound tested received a call. Report the one for Cc1c(CN2CCN(C(=O)[C@H](C)O)CC2)sc2c(N3CCOCC3)nc(-c3cnc(N)nc3)nc12 .
A: active

Q: Each compound tested received a call. Report the one for N#Cc1cccc(-c2c[nH]c3ncnc(N4CCOCC4)c23)c1 .
A: inactive

Q: Each compound tested received a call. Report the one for C=CC(=O)Nc1cccc(Oc2nc(Nc3ccc(N4CCN(C)CC4)cc3)nc3ccsc23)c1 .
A: active

Q: Each compound tested received a call. Report the one for CCS(=O)(=O)N1CCC([C@@H](C)n2c(C)c(C(=O)NCc3c(OC)cc(C)[nH]c3=O)c3ccccc32)CC1 .
A: inactive

* * *

Hi there, I'd appreciate the recorded viability for every entry that follows.
assay: drug combination growth inhibition, ovarian cancer – cell-based, oncology-focused library, rucaparib conditional, profiling panel (AID 1508598); conditions: patient-derived ovarian cancer cells, CellTiter-Glo viability, 144 h; at 0.313 µM; OCI-P5x cells; without rucaparib; stronger effect = lower value
# unit: % | format: bare number

Q: Quick check: viability of O=C(c1cc(Cc2n[nH]c(=O)c3ccccc23)ccc1F)N1CCN(C(=O)C2CC2)CC1 ?
A: 85.5

Q: Quick check: viability of CC(C)[C@H](C(=O)Nc1ccc(C(=O)NO)cc1)c1ccccc1 ?
A: 66.8

Q: Quick check: viability of O=C(NC1CCNCC1)c1[nH]ncc1NC(=O)c1c(Cl)cccc1Cl ?
A: 78.2

Q: Quick check: viability of NC1(c2ccc(-c3nc4ccn5c(=O)[nH]nc5c4cc3-c3ccccc3)cc2)CCC1 ?
A: 110

Q: Quick check: viability of Nc1ccccc1NC(=O)c1ccc(CNc2nccc(-c3cccnc3)n2)cc1 ?
A: 77.1

Q: Quick check: viability of Cc1c(NC(=O)OC[C@@H]2COCCN2)cn2ncnc(Nc3ccc4c(cnn4Cc4cccc(F)c4)c3)c12 ?
A: 96.4

Q: Quick check: viability of NC(=O)c1ccc(I)c([N+](=O)[O-])c1 ?
A: 88.7

Q: Quick check: viability of CNC(=O)c1cc(Oc2ccc(NC(=O)Nc3ccc(Cl)c(C(F)(F)F)c3)c(F)c2)ccn1 ?
A: 117

Q: Quick check: viability of Cc1cnc(-c2cnc(NCCNc3ccc(C#N)cn3)nc2-c2ccc(Cl)cc2Cl)[nH]1 ?
A: 99.5

Q: Quick check: viability of CN(C)Cc1c(C(=O)NCCOc2ccc(C(=O)NO)cc2)oc2ccccc12 ?
A: 79.9

Q: Quick check: viability of COC(=O)c1ccc2c(C(=Nc3ccc(N(C)C(=O)CN4CCN(C)CC4)cc3)c3ccccc3)c(O)[nH]c2c1 ?
A: 97.6

Q: Quick check: viability of NC(=O)Nc1cc(-c2cccc(F)c2)sc1C(=O)N[C@H]1CCCNC1 ?
A: 21.6

Q: Quick check: viability of Cc1cccc(-c2[nH]c(C(C)(C)C)nc2-c2ccc3nccnc3c2)n1 ?
A: 102

Q: Quick check: viability of Cc1cc(Nc2nc(N[C@@H](C)c3ncc(F)cn3)ncc2Cl)n[nH]1 ?
A: 99.9

Q: Quick check: viability of Cc1nc(Nc2n[nH]c3c2CN(C(=O)N[C@H](CN(C)C)c2ccccc2)C3(C)C)c2sccc2n1 ?
A: 48.5

Q: Quick check: viability of CN1CCN(c2nc(C3=C(c4c[nH]c5ccccc45)C(=O)NC3=O)c3ccccc3n2)CC1 ?
A: 107

Q: Quick check: viability of CCC[C@H](NC(=O)/C(C#N)=C/c1cccc(Br)n1)c1ccccc1 ?
A: 123

Q: Quick check: viability of Cn1cc(-c2ccc3nnc(C(F)(F)c4ccc5ncccc5c4)n3n2)cn1 ?
A: 95.6
